test system: contraction of the aorta strip caused by KCl; experiment: Vasodilating action: inhibition of contraction of rabbit aorta strip caused by KCl; format: cell-based; conditions: Oryctolagus cuniculus, compound 10^-5 M, KCl 60 mM, 15 min pretreatment, read-out: Inhibitory percent against contraction, KCl
inhibition at 10 µM by entry:
Please give a number only; it is taken to be in %.

I would be grateful if you could share the reported inhibition at 10 µM for Cc1cccc2c1NC(=O)C(CCCN1CCN(c3cccc(Cl)c3)CC1)S2 (stereo not drawn) .
50

I would be grateful if you could share the reported inhibition at 10 µM for COc1ccccc1N1CCN(CCCC2Sc3cc(C)cc(C)c3NC2=O)CC1 (stereo not drawn) .
62

I would be grateful if you could share the reported inhibition at 10 µM for CN1C(=O)C(CCN2CCN(c3ccc(F)cc3)CC2)Sc2ccccc21 (stereo not drawn) .
42

I would be grateful if you could share the reported inhibition at 10 µM for COc1ccccc1N1CCN(CCC2Sc3ccccc3NC2=O)CC1 (stereo not drawn) .
15

I would be grateful if you could share the reported inhibition at 10 µM for COc1ccccc1N1CCN(CCCC2Sc3cc(Cl)ccc3NC2=O)CC1 (stereo not drawn) .
40

I would be grateful if you could share the reported inhibition at 10 µM for Cc1cccc2c1NC(=O)C(CCCN1CCN(c3ccc(F)cc3)CC1)S2 (stereo not drawn) .
41

I would be grateful if you could share the reported inhibition at 10 µM for COc1ccc2c(c1)SC(CCN1CCN(c3ccccc3)CC1)C(=O)N2 (stereo not drawn) .
15

I would be grateful if you could share the reported inhibition at 10 µM for COc1ccccc1N1CCN(CCCC2Sc3cc(C)ccc3NC2=O)CC1 (stereo not drawn) .
32

I would be grateful if you could share the reported inhibition at 10 µM for COc1ccccc1N1CCN(CCCC2Sc3ccccc3NC2=O)CC1 (stereo not drawn) .
10

----------
test system: contraction of the aorta strip caused by KCl; experiment: Vasodilating action: inhibition of contraction of rabbit aorta strip caused by KCl; assay type: cell-based; details: Oryctolagus cuniculus, compound 10^-5 M, KCl 60 mM, 15 min pretreatment, read-out: Inhibitory percent against contraction, KCl
The threshold is inclusive: inhibition at 10 µM of exactly 40% counts as met; values below receive not met.

Determine whether this molecule has inhibition at 10 µM no lower than 40%: CCN1C(=O)C(CCN2CCN(c3ccccc3OC)CC2)Sc2ccccc21 (centres unmarked) [Example 36]
not met

Determine whether this molecule has inhibition at 10 µM no lower than 40%: O=C1Nc2ccccc2SC1CCN1CCN(c2ccccc2)CC1 (centres unmarked) [Example 27]
not met

Determine whether this molecule has inhibition at 10 µM no lower than 40%: Cc1ccc(N2CCN(CCCC3Sc4cccc(C)c4NC3=O)CC2)cc1 (centres unmarked) [Example 7]
met

Determine whether this molecule has inhibition at 10 µM no lower than 40%: O=C1Nc2ccccc2SC1CCN1CCN(c2ccc(F)cc2)CC1 (centres unmarked) [Example 26]
met

----------
system: contraction of the aorta strip caused by KCl; assay: Vasodilating action: inhibition of contraction of rabbit aorta strip caused by KCl; assay type: cell-based; conditions: Oryctolagus cuniculus, compound 10^-5 M, KCl 60 mM, 15 min pretreatment, read-out: Inhibitory percent against contraction, KCl
Recorded Endpoint: inhibition at 10 µM

{"columns": ["Molecule", "inhibition at 10 µM"],
 "data": [
  ["Cc1ccccc1N1CCN(CCCC2Sc3cccc(C)c3NC2=O)CC1 (stereo not shown)", "11%"],
  ["COc1ccc2c(c1)SC(CCCN1CCN(c3ccccc3)CC1)C(=O)N2 (stereo not shown)", "10%"]
]}

I would be grateful if you could share the reported inhibition at 10 µM for CN1C(=O)C(CCN2CCN(c3ccccc3)CC2)Sc2ccccc21 (stereo not shown) .
40%

I would be grateful if you could share the reported inhibition at 10 µM for Cc1cccc2c1NC(=O)C(CCCN1CCN(c3cccc(C(F)(F)F)c3)CC1)S2 (stereo not shown) .
55%

Attribution: patent US4640916A
